Molecular target: Proteasome subunit beta (Trypanosoma cruzi)
Sequence (whole entry): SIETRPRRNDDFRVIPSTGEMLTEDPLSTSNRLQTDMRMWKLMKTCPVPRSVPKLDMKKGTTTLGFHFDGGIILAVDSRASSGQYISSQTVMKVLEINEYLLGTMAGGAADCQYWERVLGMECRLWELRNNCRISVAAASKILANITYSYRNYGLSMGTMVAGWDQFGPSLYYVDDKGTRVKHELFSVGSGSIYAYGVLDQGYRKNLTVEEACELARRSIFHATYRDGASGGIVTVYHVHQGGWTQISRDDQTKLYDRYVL
Assay: Trypanosoma cruzi proteasome chymotrypsin-like activity (TcProtChymo) assay. Further: in the data most compounds retested in dose-response had high values.
Format: functional
Parameters: scale not given: direction of the effect not stated beside the values
Conditions: 9.37 µM
result-type: Percent Effect (%)
Return type: number; implicit unit %.

Known Percent Effect results, listed for orientation:
INSERT INTO assay_data (compound, experimental_value) VALUES
  ('CN(C)C(=O)C1(CCCc2ccncc2)CCCN1 (centres undefined)', 26.1),
  ('Cc1cnn(C2CCCN(C(=O)c3cccc(Cn4ccnc4)c3)C2)c1 (centres undefined)', 17.3),
  ('c1cnc2c(c1)cc([C@H]1CCCO1)n2CCN1CCCCC1', 9.52);

Using the record for O=C(NCCN1CCOCC1)c1ccc(-n2ccc3ccccc32)s1 , report its Percent Effect.
8.01

Recorded Percent Effect of CC(O)CN1CCC(CNCc2ccc(S(C)(=O)=O)cc2)CC1 (centres undefined) , please.
24.5

For the compound Cc1cnc(NC(=O)c2ccc(-n3ncc(C#N)c3N)cc2)s1 , what Percent Effect is on record?
5.49

Entry under review: O=C(c1nc(COc2ccc3c(c2)OCO3)no1)N1CCCC1 . Reported Percent Effect?
9.98

What value of Percent Effect has been recorded for this entry: CNc1nc(CNC(=O)Nc2ccccc2SC)cs1
7.69

// Percent Effect lookup, key: Cc1ccc(C(=O)N2CCCC(NC(=O)C(C)C)C2)c(O)c1 (centres undefined)
11.9

* * *

biological target: Protein translocase subunit SecA (Escherichia coli (strain K12)) (UniProt P10408); assay: Assay to Identify E. coli SecA ATPase Inhibitors; assay type: functional; set-up: scale not given: direction of the effect not stated beside the values; conditions: 30 µM
Sequence (P10408 whole entry): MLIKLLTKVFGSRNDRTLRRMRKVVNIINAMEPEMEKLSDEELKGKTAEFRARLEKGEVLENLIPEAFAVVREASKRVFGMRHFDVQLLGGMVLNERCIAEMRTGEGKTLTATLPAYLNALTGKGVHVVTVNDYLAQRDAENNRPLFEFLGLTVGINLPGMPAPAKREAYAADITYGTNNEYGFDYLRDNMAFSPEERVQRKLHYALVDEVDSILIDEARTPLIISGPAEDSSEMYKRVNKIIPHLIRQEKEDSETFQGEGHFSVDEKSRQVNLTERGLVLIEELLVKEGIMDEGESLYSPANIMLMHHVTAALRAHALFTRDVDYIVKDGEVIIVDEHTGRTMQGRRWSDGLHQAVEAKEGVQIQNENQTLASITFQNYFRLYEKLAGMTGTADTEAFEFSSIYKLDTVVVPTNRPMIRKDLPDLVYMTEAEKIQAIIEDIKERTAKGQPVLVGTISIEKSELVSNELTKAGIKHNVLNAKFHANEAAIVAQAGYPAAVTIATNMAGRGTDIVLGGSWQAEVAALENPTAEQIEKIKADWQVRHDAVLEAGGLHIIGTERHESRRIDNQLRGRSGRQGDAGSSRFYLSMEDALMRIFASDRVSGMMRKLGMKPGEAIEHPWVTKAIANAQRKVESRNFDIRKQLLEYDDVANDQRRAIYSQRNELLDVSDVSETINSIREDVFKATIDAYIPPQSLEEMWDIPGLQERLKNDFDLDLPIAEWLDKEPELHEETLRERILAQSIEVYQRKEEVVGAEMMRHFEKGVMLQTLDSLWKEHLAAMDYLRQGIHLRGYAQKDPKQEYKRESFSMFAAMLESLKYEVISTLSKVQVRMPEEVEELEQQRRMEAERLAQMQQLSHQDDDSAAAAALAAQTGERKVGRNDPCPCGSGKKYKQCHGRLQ
Potency and affinity values are given separately.
result-type: Percent Effect (%)
Please give a number only; it is taken to be in %.

INSERT INTO results (compound, assay_target, experimental_value) VALUES
  ('CC(C)c1nc2n(n1)CC(NCc1nnc(C(C)C)o1)CC2 (configuration not stated)', 'Protein translocase subunit SecA (Escherichia coli (strain K12)) (UniProt P10408)', -2.44);

Protein translocase subunit SecA (Escherichia coli (strain K12)) (UniProt P10408) / Percent Effect / Cc1ccc(C(=O)CCC(=O)N2CCC(c3nncn3C)CC2)cc1 : value?
-8.28

Lab note: need Percent Effect with Protein translocase subunit SecA (Escherichia coli (strain K12)) (UniProt P10408) for entry CCN1CCN(S(=O)(=O)c2cc(C)c(Cl)cc2Cl)CC1 , please look it up.
-6.87

API: value(readout= Percent Effect, system= Protein translocase subunit SecA (Escherichia coli (strain K12)) (UniProt P10408), query= O=C(NCc1ccccn1)[C@@H]1COC[C@H]2CN(C3CCOCC3)C[C@H]21 )
4.15

What measured Percent Effect is associated with c1ncc(Nc2nccc(C3CCCCN3CC3CCCCC3)n2)cn1 (configuration not stated) on Protein translocase subunit SecA (Escherichia coli (strain K12)) (UniProt P10408)?
-4.71
